Numbers sourced from paper PMC11272821.

target.desc: Kinase insert domain receptor kinase (KDR) (Homo sapiens, UniProt P35968)
Sequence (P35968 20-1356): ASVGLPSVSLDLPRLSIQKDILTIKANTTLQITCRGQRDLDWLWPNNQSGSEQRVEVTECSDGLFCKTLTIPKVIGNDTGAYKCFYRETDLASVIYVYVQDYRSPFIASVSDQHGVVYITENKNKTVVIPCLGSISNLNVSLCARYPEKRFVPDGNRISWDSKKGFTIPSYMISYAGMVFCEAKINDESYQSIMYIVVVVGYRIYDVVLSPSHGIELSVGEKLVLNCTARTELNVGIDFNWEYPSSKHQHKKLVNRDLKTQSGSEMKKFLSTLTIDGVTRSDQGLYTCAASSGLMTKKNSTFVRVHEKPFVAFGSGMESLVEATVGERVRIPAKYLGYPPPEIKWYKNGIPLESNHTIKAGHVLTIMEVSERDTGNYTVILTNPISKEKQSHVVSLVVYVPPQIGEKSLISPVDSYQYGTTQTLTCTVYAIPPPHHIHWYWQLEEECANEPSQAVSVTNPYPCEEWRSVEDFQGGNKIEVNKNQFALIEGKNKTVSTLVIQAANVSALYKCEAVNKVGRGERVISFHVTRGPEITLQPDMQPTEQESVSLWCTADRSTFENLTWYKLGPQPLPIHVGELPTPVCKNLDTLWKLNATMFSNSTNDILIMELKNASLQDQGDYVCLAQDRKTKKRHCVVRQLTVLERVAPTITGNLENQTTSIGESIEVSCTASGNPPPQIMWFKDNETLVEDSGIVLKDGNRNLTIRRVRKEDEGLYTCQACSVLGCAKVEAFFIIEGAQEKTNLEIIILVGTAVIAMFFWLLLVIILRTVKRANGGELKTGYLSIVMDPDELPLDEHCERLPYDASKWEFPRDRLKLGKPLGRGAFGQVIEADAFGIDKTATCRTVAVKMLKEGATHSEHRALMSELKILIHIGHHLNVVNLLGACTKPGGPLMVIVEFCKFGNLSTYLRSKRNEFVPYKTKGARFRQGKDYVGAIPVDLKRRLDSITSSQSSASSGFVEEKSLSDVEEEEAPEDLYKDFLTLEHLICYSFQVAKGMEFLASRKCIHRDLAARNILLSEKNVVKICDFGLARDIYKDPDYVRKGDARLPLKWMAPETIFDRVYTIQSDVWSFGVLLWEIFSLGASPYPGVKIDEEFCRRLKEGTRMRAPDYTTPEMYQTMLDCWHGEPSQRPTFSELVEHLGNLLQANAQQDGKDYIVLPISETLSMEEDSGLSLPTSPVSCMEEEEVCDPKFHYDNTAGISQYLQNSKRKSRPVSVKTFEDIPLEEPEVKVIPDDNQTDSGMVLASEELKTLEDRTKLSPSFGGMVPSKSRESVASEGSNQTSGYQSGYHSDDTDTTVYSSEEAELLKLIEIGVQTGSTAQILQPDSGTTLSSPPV
property: IC50 (µM)
Give bare numbers, in µM.

Record request: IC50 value, item Cn1cc2cc(-c3cc4[nH]nc(C5CC5)c4n(-c4ccc(OC(F)F)cc4)c3=O)ccc2n1
9.5

====

target.desc: UniProt:P24557
Sequence (P24557 whole entry): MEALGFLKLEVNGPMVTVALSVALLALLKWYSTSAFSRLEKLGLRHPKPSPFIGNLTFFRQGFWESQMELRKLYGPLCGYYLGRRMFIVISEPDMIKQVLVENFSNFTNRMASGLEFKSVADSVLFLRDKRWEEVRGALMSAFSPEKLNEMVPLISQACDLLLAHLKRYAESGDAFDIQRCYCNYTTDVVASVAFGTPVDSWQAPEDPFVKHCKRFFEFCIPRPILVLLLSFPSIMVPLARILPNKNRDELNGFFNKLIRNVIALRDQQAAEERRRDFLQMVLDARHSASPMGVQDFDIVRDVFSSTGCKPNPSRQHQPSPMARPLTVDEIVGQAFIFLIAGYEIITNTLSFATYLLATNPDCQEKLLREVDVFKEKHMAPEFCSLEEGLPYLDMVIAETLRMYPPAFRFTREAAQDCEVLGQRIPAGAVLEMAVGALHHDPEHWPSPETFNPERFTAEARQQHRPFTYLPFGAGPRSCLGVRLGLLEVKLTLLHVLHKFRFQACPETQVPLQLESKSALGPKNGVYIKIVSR
property: pIC50
Give bare numbers, as −log10 of the molar value.

UniProt:P24557 / pIC50 / Cn1cc2cc(-c3cc4[nH]nc(C5CC5)c4n(-c4ccc(OC(F)F)cc4)c3=O)ccc2n1 : value?
5.05

====

Tested on: HepG2 Spheroid
test.protocol: HepG2 C3A 3D spheroid cytotoxicity
Format: cell-based
setup.conditions: 3D spheroids; read-out: HepG2 Spheroid Cytotox IC50
property: pIC50
One number for each entry, as −log10 of the molar value.

Give the reported pIC50 for Cn1cc2cc(-c3cc4[nH]nc(C5CC5)c4n(-c4ccc(OC(F)F)cc4)c3=O)ccc2n1 [AZ’9567] (system: HepG2 Spheroid).
4.23

====

target.desc: Fibroblast growth factor receptor 1 kinase (FGFR1 kinase) (Homo sapiens, UniProt P11362)
property: pIC50
One number for each entry, as −log10 of the molar value.

Looking for the measured pIC50 of Cn1cc2cc(-c3cc4[nH]nc(C5CC5)c4n(-c4ccc(OC(F)F)cc4)c3=O)ccc2n1 , can you help?
4.30

====

target.desc: hERG (Homo sapiens)
test.protocol: hERG safety assay
Assay type: cell-based
setup.conditions: Full curve
property: IC50 (µM)
Answers are plain numbers, in µM.

# IC50 lookup, item Cn1cc2cc(-c3cc4[nH]nc(C5CC5)c4n(-c4ccc(OC(F)F)cc4)c3=O)ccc2n1
33.1

====

target.desc: NaV1.5 (Homo sapiens)
test.protocol: Cardiac ion channel panel
Assay type: cell-based
setup.conditions: Full curve
property: IC50

Give recorded IC50 with NaV1.5 (Homo sapiens) for the following compound: Cn1cc2cc(-c3cc4[nH]nc(C5CC5)c4n(-c4ccc(OC(F)F)cc4)c3=O)ccc2n1
> 40 µM

====

target.desc: Kv4.3 (Homo sapiens)
Sequence (Q9UK17 1-655): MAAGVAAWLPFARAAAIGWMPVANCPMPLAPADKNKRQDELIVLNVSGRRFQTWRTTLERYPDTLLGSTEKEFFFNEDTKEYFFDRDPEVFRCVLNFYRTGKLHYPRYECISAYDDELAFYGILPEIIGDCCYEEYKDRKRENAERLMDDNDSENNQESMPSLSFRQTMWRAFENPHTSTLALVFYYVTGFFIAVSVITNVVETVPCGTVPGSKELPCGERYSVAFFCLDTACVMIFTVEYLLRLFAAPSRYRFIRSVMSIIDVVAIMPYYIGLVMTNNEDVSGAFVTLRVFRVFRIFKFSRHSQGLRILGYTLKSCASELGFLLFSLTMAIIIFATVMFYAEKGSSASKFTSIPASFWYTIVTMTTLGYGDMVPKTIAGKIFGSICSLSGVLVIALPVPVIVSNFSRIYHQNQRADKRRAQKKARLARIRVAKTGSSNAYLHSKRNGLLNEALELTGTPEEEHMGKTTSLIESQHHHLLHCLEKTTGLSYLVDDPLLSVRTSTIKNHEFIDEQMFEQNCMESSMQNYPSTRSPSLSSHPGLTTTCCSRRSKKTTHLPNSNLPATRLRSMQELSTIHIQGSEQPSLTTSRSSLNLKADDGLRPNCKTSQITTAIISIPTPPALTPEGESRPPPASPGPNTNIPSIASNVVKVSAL
test.protocol: Cardiac ion channel panel
setup.conditions: Full curve
property: IC50

Field request: IC50 | item: Cn1cc2cc(-c3cc4[nH]nc(C5CC5)c4n(-c4ccc(OC(F)F)cc4)c3=O)ccc2n1
> 40 µM

====

target.desc: Dopamine transporter (DAT) (Homo sapiens, UniProt Q01959)
Construct: Eurofins
Sequence (Q01959 whole entry): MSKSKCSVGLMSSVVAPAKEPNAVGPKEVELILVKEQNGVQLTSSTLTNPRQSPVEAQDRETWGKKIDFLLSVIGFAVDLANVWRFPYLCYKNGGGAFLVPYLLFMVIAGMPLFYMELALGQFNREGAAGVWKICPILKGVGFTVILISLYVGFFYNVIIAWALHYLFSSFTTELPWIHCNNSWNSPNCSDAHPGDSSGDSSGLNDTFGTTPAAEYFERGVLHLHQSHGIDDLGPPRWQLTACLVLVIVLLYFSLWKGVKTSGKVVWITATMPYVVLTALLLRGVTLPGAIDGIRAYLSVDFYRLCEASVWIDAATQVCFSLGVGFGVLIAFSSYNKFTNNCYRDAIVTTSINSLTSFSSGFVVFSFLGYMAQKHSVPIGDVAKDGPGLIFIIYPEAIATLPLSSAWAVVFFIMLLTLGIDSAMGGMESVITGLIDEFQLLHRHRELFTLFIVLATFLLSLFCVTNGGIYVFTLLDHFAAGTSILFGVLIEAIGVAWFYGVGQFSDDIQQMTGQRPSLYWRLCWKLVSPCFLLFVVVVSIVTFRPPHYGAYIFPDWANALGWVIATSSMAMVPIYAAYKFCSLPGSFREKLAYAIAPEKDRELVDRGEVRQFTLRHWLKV
test.protocol: Radioligand binding assay
Procedure: Secondary pharmacology assays were performed at Eurofins using standard experimental techniques against a total of 86 targets across a broad pharmacological space. Assay details along with experimental protocols are described at https://www.eurofinsdiscoveryservices.com. […] Assays were run in eight points concentration response mode with half log dilutions and IC50, EC50 or Ki (Cheng and Prusoff [1973]) values determined.
property: Ki (µM)
Answers are plain numbers, in µM.

Param item = Cn1cc2cc(-c3cc4[nH]nc(C5CC5)c4n(-c4ccc(OC(F)F)cc4)c3=O)ccc2n1 [AZ’9567] ; retrieve measured Ki.
22.6

====

target.desc: κ opioid receptor (Homo sapiens, UniProt P41145)
Sequence (P41145 whole entry): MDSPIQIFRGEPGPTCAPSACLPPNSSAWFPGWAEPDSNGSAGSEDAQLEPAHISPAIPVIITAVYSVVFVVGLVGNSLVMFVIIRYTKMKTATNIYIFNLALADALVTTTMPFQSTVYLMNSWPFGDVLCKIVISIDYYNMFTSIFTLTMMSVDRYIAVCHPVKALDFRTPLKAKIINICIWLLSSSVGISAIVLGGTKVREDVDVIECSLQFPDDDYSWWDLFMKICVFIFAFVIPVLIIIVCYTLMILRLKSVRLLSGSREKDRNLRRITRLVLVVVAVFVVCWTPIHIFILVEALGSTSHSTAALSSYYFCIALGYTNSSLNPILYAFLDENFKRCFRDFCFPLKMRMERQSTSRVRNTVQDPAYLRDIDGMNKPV
property: pKi
Give bare numbers, as −log10 of the molar value.

Param item = Cn1cc2cc(-c3cc4[nH]nc(C5CC5)c4n(-c4ccc(OC(F)F)cc4)c3=O)ccc2n1 ; retrieve measured pKi.
5.22

====

target.desc: A2A adenosine receptor (Homo sapiens)
Sequence (P29274 whole entry): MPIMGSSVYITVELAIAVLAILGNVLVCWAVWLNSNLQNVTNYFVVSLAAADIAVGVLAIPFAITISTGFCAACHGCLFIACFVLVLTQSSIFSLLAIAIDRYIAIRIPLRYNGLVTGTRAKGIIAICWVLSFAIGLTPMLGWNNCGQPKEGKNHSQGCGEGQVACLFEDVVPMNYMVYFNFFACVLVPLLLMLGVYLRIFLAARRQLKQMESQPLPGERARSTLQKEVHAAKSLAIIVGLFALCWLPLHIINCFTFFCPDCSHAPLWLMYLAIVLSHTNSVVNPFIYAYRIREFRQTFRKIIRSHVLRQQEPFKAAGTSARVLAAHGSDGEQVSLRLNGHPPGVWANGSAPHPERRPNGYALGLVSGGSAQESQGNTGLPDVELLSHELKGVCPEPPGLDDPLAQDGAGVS
property: Ki (nM)
Numbers only, in nM.

Any idea what Ki was measured for Cn1cc2cc(-c3cc4[nH]nc(C5CC5)c4n(-c4ccc(OC(F)F)cc4)c3=O)ccc2n1 ?
2200

====

target.desc: Glycogen synthase kinase-3 β (Homo sapiens, UniProt P49841)
Sequence (P49841 whole entry): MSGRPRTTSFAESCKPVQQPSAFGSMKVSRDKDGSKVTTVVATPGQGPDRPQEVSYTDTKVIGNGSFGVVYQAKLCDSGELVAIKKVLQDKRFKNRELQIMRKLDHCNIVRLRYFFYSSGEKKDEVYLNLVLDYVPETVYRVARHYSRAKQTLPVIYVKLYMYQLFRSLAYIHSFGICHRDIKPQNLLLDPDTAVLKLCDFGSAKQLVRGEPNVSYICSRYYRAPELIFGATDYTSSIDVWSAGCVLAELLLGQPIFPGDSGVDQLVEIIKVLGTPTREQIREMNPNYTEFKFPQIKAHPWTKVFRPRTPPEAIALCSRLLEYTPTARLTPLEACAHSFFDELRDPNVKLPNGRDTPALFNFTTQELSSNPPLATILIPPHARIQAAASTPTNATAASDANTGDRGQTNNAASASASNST
property: IC50 (nM)
Answers are plain numbers, in nM.

What value of IC50 on Glycogen synthase kinase-3 β (Homo sapiens, UniProt P49841) does Cn1cc2cc(-c3cc4[nH]nc(C5CC5)c4n(-c4ccc(OC(F)F)cc4)c3=O)ccc2n1 have?
1600

====

target.desc: AT1 angiotensin receptor (Homo sapiens)
Construct: Eurofins
Sequence (P30556 whole entry): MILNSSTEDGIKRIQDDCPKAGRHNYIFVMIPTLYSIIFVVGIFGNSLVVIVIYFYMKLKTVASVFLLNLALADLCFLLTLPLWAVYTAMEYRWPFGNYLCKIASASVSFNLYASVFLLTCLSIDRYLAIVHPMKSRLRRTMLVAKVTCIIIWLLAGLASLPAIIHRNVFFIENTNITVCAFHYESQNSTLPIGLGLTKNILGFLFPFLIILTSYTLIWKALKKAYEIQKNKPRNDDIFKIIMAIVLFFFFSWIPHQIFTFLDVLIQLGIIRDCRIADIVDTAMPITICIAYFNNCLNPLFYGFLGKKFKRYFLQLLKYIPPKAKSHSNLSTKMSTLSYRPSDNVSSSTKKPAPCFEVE
test.protocol: Radioligand binding assay
Experimental: Secondary pharmacology assays were performed at Eurofins using standard experimental techniques against a total of 86 targets across a broad pharmacological space. Assay details along with experimental protocols are described at https://www.eurofinsdiscoveryservices.com. […] Assays were run in eight points concentration response mode with half log dilutions and IC50, EC50 or Ki (Cheng and Prusoff [1973]) values determined.
property: pKi
One number for each entry, as −log10 of the molar value.

Give its pKi value. Item: Cn1cc2cc(-c3cc4[nH]nc(C5CC5)c4n(-c4ccc(OC(F)F)cc4)c3=O)ccc2n1
4.90

====

target.desc: α1B adrenoceptor (Homo sapiens, UniProt P35368)
Construct: Eurofins
Sequence (P35368 1-520): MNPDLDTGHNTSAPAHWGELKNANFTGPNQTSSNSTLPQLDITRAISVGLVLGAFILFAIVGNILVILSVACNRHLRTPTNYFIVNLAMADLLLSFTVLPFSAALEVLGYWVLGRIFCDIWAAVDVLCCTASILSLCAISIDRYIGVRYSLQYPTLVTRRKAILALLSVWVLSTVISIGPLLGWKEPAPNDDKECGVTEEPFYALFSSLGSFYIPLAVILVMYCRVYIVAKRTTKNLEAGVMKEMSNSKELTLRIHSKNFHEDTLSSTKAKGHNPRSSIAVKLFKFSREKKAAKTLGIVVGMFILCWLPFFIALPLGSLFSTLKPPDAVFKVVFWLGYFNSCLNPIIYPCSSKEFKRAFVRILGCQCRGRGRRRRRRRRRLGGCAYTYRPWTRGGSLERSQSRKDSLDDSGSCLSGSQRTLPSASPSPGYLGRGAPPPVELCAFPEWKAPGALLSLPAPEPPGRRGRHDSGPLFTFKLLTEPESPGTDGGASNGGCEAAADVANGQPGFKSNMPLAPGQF
test.protocol: Cell based functional assay
setup.conditions: Antagonist; read-out: Functional IC50 or EC50
property: pIC50
One number for each entry, as −log10 of the molar value.

Query: pIC50; subject: Cn1cc2cc(-c3cc4[nH]nc(C5CC5)c4n(-c4ccc(OC(F)F)cc4)c3=O)ccc2n1
4.54

====

target.desc: M2 muscarinic receptor (Homo sapiens, UniProt P08172)
Construct: Eurofins
Sequence (P08172 whole entry): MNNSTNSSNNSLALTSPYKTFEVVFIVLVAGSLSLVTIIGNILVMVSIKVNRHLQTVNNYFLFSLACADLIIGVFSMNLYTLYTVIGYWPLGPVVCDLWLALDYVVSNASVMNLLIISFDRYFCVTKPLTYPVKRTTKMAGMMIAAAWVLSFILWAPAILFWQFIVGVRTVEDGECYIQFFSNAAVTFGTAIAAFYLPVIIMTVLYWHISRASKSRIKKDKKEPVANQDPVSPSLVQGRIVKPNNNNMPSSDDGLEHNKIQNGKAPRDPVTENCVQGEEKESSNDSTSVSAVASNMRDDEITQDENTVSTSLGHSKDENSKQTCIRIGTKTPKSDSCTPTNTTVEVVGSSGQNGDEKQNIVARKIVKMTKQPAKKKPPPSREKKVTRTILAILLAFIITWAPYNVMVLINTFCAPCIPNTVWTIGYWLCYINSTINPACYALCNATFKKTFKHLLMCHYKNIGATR
test.protocol: Cell based functional assay
setup.conditions: Antagonist; read-out: Functional IC50 or EC50
property: pIC50
One number for each entry, as −log10 of the molar value.

Entry Cn1cc2cc(-c3cc4[nH]nc(C5CC5)c4n(-c4ccc(OC(F)F)cc4)c3=O)ccc2n1 , system M2 muscarinic receptor (Homo sapiens, UniProt P08172): what pIC50 was measured?
4.77

====

target.desc: CCK1 cholecystokinin receptor (Homo sapiens, UniProt P32238)
Sequence (P32238 whole entry): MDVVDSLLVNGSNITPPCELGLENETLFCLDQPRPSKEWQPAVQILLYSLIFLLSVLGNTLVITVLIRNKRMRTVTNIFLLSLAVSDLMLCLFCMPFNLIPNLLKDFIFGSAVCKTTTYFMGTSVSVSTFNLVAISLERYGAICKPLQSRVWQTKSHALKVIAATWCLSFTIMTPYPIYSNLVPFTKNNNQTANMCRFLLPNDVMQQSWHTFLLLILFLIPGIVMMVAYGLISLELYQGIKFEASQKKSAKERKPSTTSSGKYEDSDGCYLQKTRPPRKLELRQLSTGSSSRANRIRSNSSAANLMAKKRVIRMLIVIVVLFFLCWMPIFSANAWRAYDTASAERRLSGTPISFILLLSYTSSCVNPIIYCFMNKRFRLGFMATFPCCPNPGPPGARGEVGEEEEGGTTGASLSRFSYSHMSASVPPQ
property: pKi
Numbers only, as −log10 of the molar value.

Could you tell me which pKi is on file for Cn1cc2cc(-c3cc4[nH]nc(C5CC5)c4n(-c4ccc(OC(F)F)cc4)c3=O)ccc2n1 ?
4.60
